Target: human TLR9 (Homo sapiens, UniProt Q9NR96)
Sequence (Q9NR96 26-1032): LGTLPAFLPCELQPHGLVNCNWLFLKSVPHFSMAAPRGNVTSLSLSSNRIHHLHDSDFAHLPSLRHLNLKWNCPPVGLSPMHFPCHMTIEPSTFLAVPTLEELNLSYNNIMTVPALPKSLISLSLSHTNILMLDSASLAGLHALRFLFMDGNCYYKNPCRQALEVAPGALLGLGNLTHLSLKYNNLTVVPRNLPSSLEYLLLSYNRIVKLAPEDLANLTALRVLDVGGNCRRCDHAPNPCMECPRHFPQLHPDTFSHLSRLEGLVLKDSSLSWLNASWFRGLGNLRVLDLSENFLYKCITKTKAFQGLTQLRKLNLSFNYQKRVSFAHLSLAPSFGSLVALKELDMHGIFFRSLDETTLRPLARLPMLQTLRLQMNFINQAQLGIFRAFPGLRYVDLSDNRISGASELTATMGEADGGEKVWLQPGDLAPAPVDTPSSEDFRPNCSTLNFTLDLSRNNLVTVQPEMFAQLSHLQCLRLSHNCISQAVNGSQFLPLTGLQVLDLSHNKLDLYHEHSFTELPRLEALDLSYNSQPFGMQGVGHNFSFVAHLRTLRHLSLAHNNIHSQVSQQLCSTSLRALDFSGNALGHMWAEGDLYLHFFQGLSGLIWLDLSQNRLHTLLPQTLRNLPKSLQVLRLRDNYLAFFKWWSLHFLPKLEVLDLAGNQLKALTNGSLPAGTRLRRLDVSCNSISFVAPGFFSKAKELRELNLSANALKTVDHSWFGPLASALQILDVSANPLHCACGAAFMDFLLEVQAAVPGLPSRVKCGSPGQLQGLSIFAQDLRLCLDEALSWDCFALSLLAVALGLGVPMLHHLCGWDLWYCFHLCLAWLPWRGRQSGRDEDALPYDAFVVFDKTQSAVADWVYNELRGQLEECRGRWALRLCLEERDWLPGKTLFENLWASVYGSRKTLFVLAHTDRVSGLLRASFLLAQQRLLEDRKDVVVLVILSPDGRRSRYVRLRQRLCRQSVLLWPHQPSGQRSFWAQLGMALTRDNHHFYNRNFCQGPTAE
Experiment: TLR9 inhibition reporter assay (HEK-Blue cells, SEAP reporter, ODN2006 stimulation)
Settings: HEK-Blue cells overexpressing human TLR9, SEAP reporter, ODN2006 5 nM
Please go through the items and note down their IC50.

Batch of 7 compounds: report IC50 for each.
1. CNC(=O)CN1CCC(c2ccc3[nH]c(-c4cn5ccnc5c(C)c4C)c(C(C)C)c3c2)CC1
2. CNCC(=O)N1CCC(c2ccc3[nH]c(-c4cc(F)c5nccn5c4)c(C(C)C)c3c2)CC1
3. CCc1c(-c2ccnc3[nH]ccc23)[nH]c2ccc(C3CCN(C4CCN(C)CC4)CC3)cc12
4. CC(C)c1c(-c2ccnc3[nH]ncc23)[nH]c2ccc(C3CCN(Cc4ccccn4)CC3)cc12
5. CC(C)c1c(-c2ccnc3[nH]ncc23)[nH]c2cc(F)c(C3CCN(CC4CCN(C(C)C)CC4)CC3)cc12
6. Cc1cc(-c2[nH]c3ccc(C4CCN(C5COC5)CC4)cc3c2C(C)C)cc2cnnn12
7. Cc1cc2cc(-c3[nH]c4ccc(C5CCNCC5)cc4c3C(C)C)cc(C)n2n1

result:
["100 to 1000 nM", "100 to 1000 nM", "< 100 nM", "1000 to 50000 nM", "< 100 nM", "1000 to 50000 nM", "1000 to 50000 nM"]

For each of the compounds below, note its IC50.
1. CNCCN1CCC(c2ccc3[nH]c(-c4cnc5ccccc5c4)c(C)c3c2)CC1
2. Cc1cc(-c2[nH]c3ccc(C4CCNCC4)cc3c2C(C)C)cn2c(C(N)=O)cnc12

result:
1: 100 to 1000 nM; 2: 1000 to 50000 nM

Quick one: give me IC50 for each item below, same order please.
1. Cc1cc(-c2[nH]c3ccc(C4CCNCC4)cc3c2C(C)C)cc2ncnn12
2. Cc1cc(-c2[nH]c3ccc(C4CCN(CC(C)C)CC4)cc3c2C(C)C)cc2[nH]cnc12
3. CNC(=O)CN1CCC(c2ccc3[nH]c(-c4cc(C)n5cncc5c4)c(C(C)C)c3c2)CC1
4. CCc1c(-c2ccnc3[nH]ncc23)[nH]c2ccc(C3CCN(Cc4csnn4)CC3)cc12
5. COc1cc(-c2[nH]c3ccc(C4CCN(Cc5cnn[nH]5)CC4)cc3c2C(C)C)nn2ncnc12

result:
1000 to 50000 nM
100 to 1000 nM
100 to 1000 nM
1000 to 50000 nM
1000 to 50000 nM

I would be grateful if you could provide IC50 for each of the following entries.
1. CC(C)c1c(-c2ncnn3cccc23)[nH]c2ccc(C3CCN(CC(=O)N(C)C)CC3)cc12
2. COc1cc(-c2[nH]c3ccc(C4CCN(CC(=O)N(C)C)CC4)cc3c2C(C)C)c2ccccc2n1
3. CC(C)c1c(-c2nc3c(s2)CNCC3)[nH]c2ccc(C3CCNCC3)cc12
4. COc1cc(-c2[nH]c3ccc(C4CCN(CC(=O)N(C)C)CC4)cc3c2C(C)C)cc2nccn12
5. Cc1cccc2cc(CN3CCC(c4ccc5[nH]c(-c6ccnc7[nH]ncc67)c(C(C)C)c5c4)CC3)c(Cl)nc12
6. Cc1c(-c2ccnc3[nH]ccc23)[nH]c2ccc(C3CCN(C4CCN(CC(C)C)CC4)CC3)cc12

result:
1: 100 to 1000 nM; 2: 1000 to 50000 nM; 3: < 100 nM; 4: 100 to 1000 nM; 5: 1000 to 50000 nM; 6: < 100 nM

Batch: IC50 for all items listed.
1. CC(C)c1c(-c2ccc(C#N)c3ncccc23)[nH]c2ccc(C3CCN(CC(=O)N(C)C)CC3)cc12
2. CC(C)c1c(-c2ccn3cnnc3c2)[nH]c2ccc(C3CCN(C(=O)CN(C)C)CC3)cc12
3. CC(C)c1c(-c2ccn3nncc3c2)[nH]c2ccc(C3CCN(CC(=O)N(C)C)CC3)cc12

result:
1000 to 50000 nM
100 to 1000 nM
1000 to 50000 nM

Answer for every listed entry: what is its IC50? The entries follow.
1. Cc1cc(-c2[nH]c3ccc(C4CCNCC4)cc3c2C(C)C)cn2nnnc12
2. CCc1c(-c2cnc3[nH]ncc3c2)[nH]c2ccc(C3CCNCC3)cc12
3. Cc1c(-c2ccc3[nH]nnc3c2)[nH]c2ccc(C3CCNCC3)cc12
4. COc1cc(-c2[nH]c3ccc(C4CCN(C5COC5)CC4)cc3c2C(C)C)nn2ncnc12
5. Cc1nnn2ccc(-c3[nH]c4ccc(C5CCN(CCS(C)(=O)=O)CC5)cc4c3C(C)C)cc12
6. CC(C)(O)CC(=O)N1CCC(c2ccc3[nH]c(-c4cc(F)c5nccn5c4)c(CC(F)F)c3c2)CC1

result:
["100 to 1000 nM", "1000 to 50000 nM", "100 to 1000 nM", "1000 to 50000 nM", "1000 to 50000 nM", "1000 to 50000 nM"]

Would you mind giving IC50 for every compound in the list below?
1. CC(C)c1c(-c2cnc3ncnn3c2)[nH]c2ccc(C3CCN(CC(=O)N(C)C)CC3)cc12
2. CNCCN1CCC(c2ccc3[nH]c(-c4ccc5nccn5c4)c(CC(F)F)c3c2)CC1

result:
["1000 to 50000 nM", "< 100 nM"]
